test system: LXRb homodimer (NR concentration 270 nM); test: PBM binding z-score (relative to random genomic background probes); higher = stronger binding; sequences stand for … in GC…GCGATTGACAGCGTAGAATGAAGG
Quantity kind: PBM binding z-score
Reply with the value as a number alone.

Challenge: Endpoint output: PBM binding z-score of `AAAACGAGGGCAATGAGTTGATAGCACGGGTGGC` . Value?
Response given: -0.657

Challenge: Endpoint output: PBM binding z-score of `GCATATAGGTAATACAAGGTGAAAGTTCGATTGT` . Value?
Response given: -0.201

Challenge: Endpoint output: PBM binding z-score of `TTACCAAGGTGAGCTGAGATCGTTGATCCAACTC` . Value?
Response given: -1.18

Challenge: Endpoint output: PBM binding z-score of `GCGACTGGGGCAACAGCAGGTTACCATAACTTAA` . Value?
Response given: -0.94

Challenge: Endpoint output: PBM binding z-score of `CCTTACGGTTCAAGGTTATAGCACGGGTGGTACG` . Value?
Response given: 0.441

Challenge: Endpoint output: PBM binding z-score of `ACTATTAGTTGAGAAGAGGGCAACCGATAGGTTG` . Value?
Response given: 0.248

---

tested on: THRa homodimer (NR concentration 90 nM); test: PBM binding z-score (relative to random genomic background probes); higher = stronger binding; sequences stand for … in GC…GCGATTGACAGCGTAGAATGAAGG
Quick rule: PBM binding z-score of at least 0.7 means Y, below that means N.

Challenge: Check the entry `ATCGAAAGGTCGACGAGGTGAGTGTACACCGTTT` : does PBM binding z-score equal or exceed 0.7?
Response given: Y

Challenge: Check the entry `TAGCCTAGGTCATTGGGCAAGTATAGTACGCATC` : does PBM binding z-score equal or exceed 0.7?
Response given: Y

Challenge: Check the entry `AATACAGGGTCATCGTAGGCCAGTGTACGCACAG` : does PBM binding z-score equal or exceed 0.7?
Response given: Y

Challenge: Check the entry `ACTATTAGTTGACTTAGGGCAAGCGATACGACGC` : does PBM binding z-score equal or exceed 0.7?
Response given: N

Challenge: Check the entry `GCTCGGAGGACAAGGTCAGAGATTTGTCCGTAGA` : does PBM binding z-score equal or exceed 0.7?
Response given: Y

Challenge: Check the entry `AGAATGAGGTTATTAAGATCAGGGCATTGCGGTC` : does PBM binding z-score equal or exceed 0.7?
Response given: Y

Challenge: Check the entry `AGAATGAGGTTATACGTAGATCAGGGATGAAAGT` : does PBM binding z-score equal or exceed 0.7?
Response given: N

Challenge: Check the entry `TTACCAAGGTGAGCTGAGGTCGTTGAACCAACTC` : does PBM binding z-score equal or exceed 0.7?
Response given: Y

Challenge: Check the entry `ATCGAAAGGTCGAACGTGAGTATACCCACCCGAA` : does PBM binding z-score equal or exceed 0.7?
Response given: N

Challenge: Check the entry `CCGACTGGGCCACGAAAGGTCATTGATTCAGTGA` : does PBM binding z-score equal or exceed 0.7?
Response given: N

Challenge: Check the entry `CCAGACAGGTGACAGGTAACTCAGTCTGGTACGC` : does PBM binding z-score equal or exceed 0.7?
Response given: N

Challenge: Check the entry `TCATATAGGTACATGCTAGGTGAAAGTCCGATCT` : does PBM binding z-score equal or exceed 0.7?
Response given: Y

Challenge: Check the entry `TCTATTAGTTGATTAGGGCAACTGAAACAGCGGA` : does PBM binding z-score equal or exceed 0.7?
Response given: N

Challenge: Check the entry `CGTCCAAGGTCAAGGGTCAGTGAAGAGATGACGG` : does PBM binding z-score equal or exceed 0.7?
Response given: Y

Challenge: Check the entry `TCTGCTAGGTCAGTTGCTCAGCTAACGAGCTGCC` : does PBM binding z-score equal or exceed 0.7?
Response given: N

Challenge: Check the entry `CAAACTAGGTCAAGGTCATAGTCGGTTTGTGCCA` : does PBM binding z-score equal or exceed 0.7?
Response given: Y

Challenge: Check the entry `GATACAGGGTCAGCTAGAGGCCAGTGTATGGAAA` : does PBM binding z-score equal or exceed 0.7?
Response given: N

Challenge: Check the entry `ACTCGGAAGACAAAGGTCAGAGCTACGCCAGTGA` : does PBM binding z-score equal or exceed 0.7?
Response given: N

Challenge: Check the entry `ATCGAAAGGTCGTGAGGTGAGTGTACAGAAAGGC` : does PBM binding z-score equal or exceed 0.7?
Response given: Y

Challenge: Check the entry `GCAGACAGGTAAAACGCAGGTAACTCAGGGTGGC` : does PBM binding z-score equal or exceed 0.7?
Response given: N

Challenge: Check the entry `ATATGTAGGTTAAGGGTCACTCAGGTTGGTTCGC` : does PBM binding z-score equal or exceed 0.7?
Response given: Y

Challenge: Check the entry `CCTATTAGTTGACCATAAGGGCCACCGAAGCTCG` : does PBM binding z-score equal or exceed 0.7?
Response given: N

Challenge: Check the entry `TGTCAAAGTTCAAAAGTAACGTAAGTATCCACAC` : does PBM binding z-score equal or exceed 0.7?
Response given: N

Challenge: Check the entry `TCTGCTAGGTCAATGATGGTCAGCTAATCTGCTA` : does PBM binding z-score equal or exceed 0.7?
Response given: N
